Recorded RLU for the following molecules
Molecular target: human TAS2R1 (Homo sapiens)
Construct: expressed in transfected cells; host or cells: HEK293T-Gα16gust44
Assay: Calcium imaging assay (FLIPR), HEK293T-Gα16gust44 cells transfected with human TAS2R1
Type: cell-based
Conditions: Time 191.562 s
Expressed in RLU, but write only the number.

MOLECULE	MEASUREMENT_TYPE	RECORDED_VALUE
C[C@H](CCC(=O)O)[C@H]1CC[C@H]2[C@@H]3[C@H](O)C[C@@H]4C[C@H](O)CC[C@]4(C)[C@H]3CC[C@]12C [Chenodeoxycholic Acid, chenodeoxycholic acid]	RLU	346.95
C[C@H](CCC(=O)O)[C@H]1CC[C@H]2[C@@H]3[C@@H](O)C[C@@H]4C[C@H](O)CC[C@]4(C)[C@H]3CC[C@]12C [Ursodeoxycholic Acid, ursodeoxycholic acid]	RLU	81.5894
C[C@H](CCC(=O)O)[C@H]1CC[C@H]2[C@@H]3CC[C@@H]4C[C@H](O)CC[C@]4(C)[C@H]3CC[C@]12C [Lithocholic Acid, lithocholic acid]	RLU	515.911

Attention now turns to another entry.
Req: # return recorded RLU for input C[C@H](CCC(=O)O)[C@H]1CC[C@H]2[C@@H]3[C@H](O)C[C@@H]4C[C@H](O)CC[C@]4(C)[C@H]3C[C@H](O)[C@]12C [Cholic Acid, cholic acid]
Resp: 119.586

###

Target: human TAS2R1 (Homo sapiens, UniProt Q9NYW7)
Construct: expressed in transfected cells; host or cells: HEK293T-Gα16gust44
Sequence (Q9NYW7 1-299): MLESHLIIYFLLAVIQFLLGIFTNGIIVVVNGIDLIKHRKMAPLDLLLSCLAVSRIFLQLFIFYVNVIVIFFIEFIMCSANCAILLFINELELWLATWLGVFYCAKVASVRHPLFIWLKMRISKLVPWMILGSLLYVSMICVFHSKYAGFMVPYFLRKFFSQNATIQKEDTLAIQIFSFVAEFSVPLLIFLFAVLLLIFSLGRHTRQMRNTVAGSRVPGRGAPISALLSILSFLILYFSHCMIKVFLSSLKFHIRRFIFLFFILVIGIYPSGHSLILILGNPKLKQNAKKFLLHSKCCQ
Test: Calcium imaging assay (FLIPR), HEK293T-Gα16gust44 cells transfected with human TAS2R1
Assay type: cell-based
Details: Time 161.562 s
MEASUREMENT_TYPE: RLU (RLU)
Expressed in RLU, but write only the number.

Req: # return recorded RLU for input C[C@H](CCC(=O)O)[C@H]1CC[C@H]2[C@@H]3CC[C@@H]4C[C@H](O)CC[C@]4(C)[C@H]3CC[C@]12C
Resp: 650.189

Req: # return recorded RLU for input C[C@H](CCC(=O)O)[C@H]1CC[C@H]2[C@@H]3[C@@H](O)C[C@@H]4C[C@H](O)CC[C@]4(C)[C@H]3CC[C@]12C
Resp: 168.826

Req: # return recorded RLU for input C[C@H](CCC(=O)O)[C@H]1CC[C@H]2[C@@H]3[C@H](O)C[C@@H]4C[C@H](O)CC[C@]4(C)[C@H]3CC[C@]12C
Resp: 428.355

Req: # return recorded RLU for input C[C@H](CCC(=O)O)[C@H]1CC[C@H]2[C@@H]3[C@H](O)C[C@@H]4C[C@H](O)CC[C@]4(C)[C@H]3C[C@H](O)[C@]12C
Resp: 228.213
